// values below are pKi; system is Sodium-dependent serotonin transporter (Rattus norvegicus, UniProt P31652)
Sequence (P31652 whole entry): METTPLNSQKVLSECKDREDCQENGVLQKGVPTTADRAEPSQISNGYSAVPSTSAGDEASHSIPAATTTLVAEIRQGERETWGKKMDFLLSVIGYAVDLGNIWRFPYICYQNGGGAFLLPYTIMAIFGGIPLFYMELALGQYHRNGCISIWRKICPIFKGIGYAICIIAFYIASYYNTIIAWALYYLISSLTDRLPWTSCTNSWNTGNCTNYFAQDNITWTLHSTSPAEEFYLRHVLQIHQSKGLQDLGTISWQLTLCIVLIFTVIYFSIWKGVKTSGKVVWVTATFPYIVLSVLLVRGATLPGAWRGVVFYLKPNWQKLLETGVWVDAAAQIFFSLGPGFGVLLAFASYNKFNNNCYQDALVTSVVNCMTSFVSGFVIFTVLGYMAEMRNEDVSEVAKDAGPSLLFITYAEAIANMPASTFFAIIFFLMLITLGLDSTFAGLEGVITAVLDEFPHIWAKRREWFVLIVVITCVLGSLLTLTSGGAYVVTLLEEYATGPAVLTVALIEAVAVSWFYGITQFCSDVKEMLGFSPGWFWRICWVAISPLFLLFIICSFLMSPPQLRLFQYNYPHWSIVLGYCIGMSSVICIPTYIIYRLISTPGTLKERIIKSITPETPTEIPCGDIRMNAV
pKi: −log10 of the molar value.

{"compound": "O=[N+]([O-])c1ccc2nc(N3CCNCC3)ccc2c1", "pKi": 9.62}
{"compound": "CCCCOCC1CNCCN1c1ccc2cc([N+](=O)[O-])ccc2n1 (configuration not stated)", "pKi": 7.81}
